tested target: XIAP-BIR3 (Homo sapiens (Human))
Sequence (P98170 241-356): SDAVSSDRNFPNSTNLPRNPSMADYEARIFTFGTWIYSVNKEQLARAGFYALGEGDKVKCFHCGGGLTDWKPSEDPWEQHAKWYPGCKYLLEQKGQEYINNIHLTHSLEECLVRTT
assay: BIR binding assay (FRET competition), XIAP BIR3
Documented IC50 across a set of compounds

Answered examples (2):
given smiles | tested target | IC50
Cc1ccc(Cc2cnc3c(c2)N(C(=O)CN2C[C@@H](C)NC[C@@H]2CN2CCO[C@H](COc4cccc(OC[C@@H]5CN(C[C@H]6CN[C@H](C)CN6CC(=O)N6CC(C)(C)c7ncc(Cc8ccc(C)cc8)cc76)CCO5)c4)C2)CC3(C)C)cc1 | XIAP-BIR3 (Homo sapiens (Human)) | 31.6 to 501 nM
C[C@@H]1CN(CC(=O)N2CC(C)(C)c3[nH]c(=O)c(Cc4ccc(F)cc4)cc32)[C@@H](CN2CCO[C@H](COc3cc(C#N)cc(OC[C@@H]4CN(C[C@H]5CN[C@H](C)CN5CC(=O)N5CC(C)(C)c6[nH]c(=O)c(Cc7ccc(F)cc7)cc65)CCO4)c3)C2)CN1 | XIAP-BIR3 (Homo sapiens (Human)) | 15.8 to 31.6 nM

Input: Notebook: pull reported IC50 for XIAP-BIR3 (Homo sapiens (Human)), entry C[C@@H]1CN(CC(=O)N2CC(C)(C)c3[nH]c(=O)c(Cc4ccc(F)cc4)cc32)[C@@H](CN2CCC(CN(C)C(=O)c3ccc(C(=O)N(C)CC4CCN(C[C@H]5CN[C@H](C)CN5CC(=O)N5CC(C)(C)c6[nH]c(=O)c(Cc7ccc(F)cc7)cc65)CC4)cc3)CC2)CN1
Output: 7.94 to 15.8 nM

Input: Notebook: pull reported IC50 for XIAP-BIR3 (Homo sapiens (Human)), entry C[C@@H]1CN(CC(=O)N2CC(C)(C)c3ncc(Cc4ccc(C(F)(F)F)cc4)cc32)[C@@H](CN2CCO[C@H](COc3cccc(OC[C@@H]4CN(C[C@H]5CN[C@H](C)CN5CC(=O)N5CC(C)(C)c6ncc(Cc7ccc(C(F)(F)F)cc7)cc65)CCO4)c3)C2)CN1
Output: 31.6 to 501 nM

Input: Notebook: pull reported IC50 for XIAP-BIR3 (Homo sapiens (Human)), entry Cc1c(OC[C@@H]2CN(C[C@H]3CN[C@H](C)CN3CC(=O)N3CC(C)(C)c4[nH]c(=O)c(Cc5ccc(F)cc5)cc43)CCO2)cccc1OC[C@@H]1CN(C[C@H]2CN[C@H](C)CN2CC(=O)N2CC(C)(C)c3[nH]c(=O)c(Cc4ccc(F)cc4)cc32)CCO1
Output: 7.94 to 15.8 nM

Input: Notebook: pull reported IC50 for XIAP-BIR3 (Homo sapiens (Human)), entry C[C@@H]1CN(CC(=O)N2CC(C)(C)c3[nH]c(=O)c(Cc4ccc(F)cc4)cc32)[C@@H](CN2CCO[C@H](C(=O)N(C)CCCN(C)C(=O)[C@@H]3CN(C[C@H]4CN[C@H](C)CN4CC(=O)N4CC(C)(C)c5[nH]c(=O)c(Cc6ccc(F)cc6)cc54)CCO3)C2)CN1
Output: 7.94 to 15.8 nM

Input: Notebook: pull reported IC50 for XIAP-BIR3 (Homo sapiens (Human)), entry C[C@@H]1CN(CC(=O)N2CC(C)(C)c3ncc(Cc4ccc(F)cc4)cc32)[C@@H](CN2CCN(S(=O)(=O)c3cccc(S(=O)(=O)N4CCN(C[C@H]5CN[C@H](C)CN5CC(=O)N5CC(C)(C)c6ncc(Cc7ccc(F)cc7)cc65)[C@H](C)C4)c3)C[C@H]2C)CN1
Output: 31.6 to 501 nM

The values you see were collected from patent US20250326771A1.
